Some compounds, each annotated with its measured EC50.
Tested on: Z-138 cell line
Assay: Z-138 Proliferation Assay (Cell Titer Glo, 5 days)
Type: cell-based
Conditions: Homo sapiens, 120 h; Z-138 cells, 5 days, Cell Titer Glo; read-out: Proliferation EC50
PARAMETER MEASURED: EC50

>>> df
                                   compound  parameter_measured  measured_result
0  CNC(=O)[C@H]1C[C@H](Nc2cc(C(=O)NC[C@H](O)CN3CCc4ccccc4C3)ncn2)C1                EC50   101 to 1000 nM
1  CCN(C)c1nc(NC2COC2)cc(C(=O)NC[C@H](O)CN2CCc3ccccc3C2)n1                EC50         < 100 nM
2  O=C(NC[C@H](O)CN1CCc2ccccc2C1)C1=CC2=N[C@H](CO)CN2C=N1                EC50        > 5000 nM
3  CC(=O)N1CCC(Nc2cc(C(=O)NCC(O)C(C)N3CCc4ccccc4C3)ncn2)CC1 (stereo not shown)                EC50        > 5000 nM
